# Read-out: Nuclear factor erythroid 2-related factor 2 (Homo sapiens) (UniProt Q16236)
# Sequence (Q16236 whole entry, looked up): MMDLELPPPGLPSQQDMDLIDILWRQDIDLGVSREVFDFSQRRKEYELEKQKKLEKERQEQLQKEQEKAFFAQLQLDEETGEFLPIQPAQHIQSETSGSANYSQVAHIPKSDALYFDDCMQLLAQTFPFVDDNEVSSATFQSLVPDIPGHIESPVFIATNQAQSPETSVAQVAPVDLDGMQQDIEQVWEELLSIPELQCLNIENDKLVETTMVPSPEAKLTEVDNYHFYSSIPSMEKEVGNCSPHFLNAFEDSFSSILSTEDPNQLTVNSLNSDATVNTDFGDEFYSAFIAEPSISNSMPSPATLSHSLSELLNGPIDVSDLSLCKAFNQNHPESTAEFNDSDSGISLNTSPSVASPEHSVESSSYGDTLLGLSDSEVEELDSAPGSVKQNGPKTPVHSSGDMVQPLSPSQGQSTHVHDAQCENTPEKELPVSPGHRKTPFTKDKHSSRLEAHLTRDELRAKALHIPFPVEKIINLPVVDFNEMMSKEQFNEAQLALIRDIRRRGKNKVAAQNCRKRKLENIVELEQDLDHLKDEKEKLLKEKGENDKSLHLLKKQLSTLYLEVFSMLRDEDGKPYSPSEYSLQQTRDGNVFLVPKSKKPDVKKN
# assay overview: LTEA_HepaRG_NFE2L2: Life Technologies and Expression Analysis (LTEA) Assay for Nuclear factor erythroid 2-related factor 2 (NFE2L2) Transcription Factor using HepaRG (AID 2283527)
# experimental parameters: mRNA level, 48 h; actives raise or lower the signal
Activity calls are given as the source filed them. How the source made its calls: active means hit-call score of the fitted dose curve at least 0.9, where 1 is the maximum; inactive means score below 0.9.
metric name: AC50

Use these answered entries as a reference point.
**Query** Please give the measured AC50 for this molecule: `O=C(O)c1ccccc1C(=O)OCc1ccccc1`
**Result** inactive

**Query** Input `O=C(O)Cn1c(=O)n(Cc2ccc(Br)cc2F)c(=O)c2ccc(Cl)cc21`
**Result** inactive

**Query** Input `CO[C@H]1/C=C/O[C@@]2(C)Oc3c(C)c(O)c4c(O)c(c(/C=N/N5CCN(C)CC5)c(O)c4c3C2=O)NC(=O)/C(C)=C\C=C\[C@H](C)[C@H](O)[C@@H](C)[C@@H](O)[C@@H](C)[C@H](OC(C)=O)[C@@H]1C`
**Result** inactive

**Query** Input `CCCCCCCCCCCO`
**Result** inactive

**Query** Input `Cc1cccc2ccccc12`
**Result** inactive

Further cases:
**Query** Please give the measured AC50 for this molecule: `CCCCCCCC[Si](OCC)(OCC)OCC`
**Result** inactive

**Query** Input `CC[C@@H]1C[C@H](N(Cc2cc(C(F)(F)F)cc(C(F)(F)F)c2)C(C)=O)c2cc(C(F)(F)F)ccc2N1C(=O)OC(C)C`
**Result** inactive

**Query** Input `Cc1oc2c(NC(=O)c3c(Cl)cccc3Cl)cccc2c1C(C)(C)O`
**Result** 79 µM (active)

**Query** Input `c1ccc2ccccc2c1`
**Result** inactive

----------
# Read-out: Apoptosis regulator Bcl-2 (Homo sapiens) (UniProt P10415)
# Sequence (P10415 whole entry, looked up): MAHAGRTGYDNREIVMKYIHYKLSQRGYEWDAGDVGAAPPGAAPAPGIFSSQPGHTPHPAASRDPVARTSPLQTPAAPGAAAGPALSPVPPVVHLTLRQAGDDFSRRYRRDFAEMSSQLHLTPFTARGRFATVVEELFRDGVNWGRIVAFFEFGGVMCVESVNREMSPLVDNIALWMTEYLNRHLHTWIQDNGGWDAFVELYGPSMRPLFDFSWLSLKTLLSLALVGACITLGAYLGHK
# assay overview: LTEA_HepaRG_BCL2: Life Technologies and Expression Analysis (LTEA) Assay for Bcl-2 gene using HepaRG (AID 2283475);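 further: BCL2 transcript by TaqMan qRT-PCR normalised to ACTB GAPDH and POLR2A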
# experimental parameters: mRNA level, 48 h; actives raise or lower the signal
Activity calls are given as the source filed them. How the source made its calls: active means hit-call score of the fitted dose curve at least 0.9, where 1 is the maximum; inactive means score below 0.9.
Outcome (select one): YES (active), NO (inactive)

Would you please look over these solved cases?
**Query** Please indicate how the test categorized CC(O)CC(C)(C)O (stereo unspecified) .
**Result** NO

**Query** Input `O=C1CCC(C2CCCCC2)CC1`
**Result** NO

**Query** Input `Cc1cccc2ccccc12`
**Result** NO

**Query** Input `Cc1oc2c(NC(=O)c3c(Cl)cccc3Cl)cccc2c1C(C)(C)O`
**Result** YES

**Query** Input `CCN(CC)C(=O)c1cc(S(=O)(=O)Cc2ccccc2)c(N2CCC(c3ccccc3)CC2)cc1N(CC)CCN(C)C`
**Result** NO

Further cases:
**Query** Please indicate how the test categorized `Cc1cc2c(cc1C(F)(F)F)N(C(=O)Nc1ccc(Oc3cccnc3C)nc1)CC2` .
**Result** NO

----------
# assay overview: BSK_4H_Eotaxin3: BioMAP Diversity Plus: 4H Assay for Eotaxin 3 Biomarker Activity (AID 2283000);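 on Outcome: CCL26 protein level quantified by ELISA in parallel with SRB cytotoxicity check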
# experimental parameters: primary human endothelial cells (HUVEC); actives raise or lower the signal
Active and inactive are the calls of the source. How the source made its calls: active means hit-call score of the fitted dose curve at least 0.9, where 1 is the maximum; inactive means score below 0.9.
Outcome (select one): active, inactive

Would you please look over these solved cases?
**Query** Please indicate how the test categorized CN1C(=O)N(c2ccccc2Br)Cc2cnc(Nc3ccc4c(c3)OCC(CO)O4)nc21 (stereo unspecified) .
**Result** active

**Query** Input `CCCOC(=O)c1cc(O)c(O)c(O)c1`
**Result** inactive

**Query** Input `O=C1O[C@H]([C@@H](O)CO)C(O)=C1O`
**Result** inactive

**Query** Input `NC(=O)c1nc(-c2cccc(-c3cc(F)ccc3OCC(F)(F)C(F)(F)F)c2)n[nH]1`
**Result** active

**Query** Input `O=C=NCCCCCCN=C=O`
**Result** inactive

**Query** Input `CC[C@@H]1C[C@H](N(Cc2cc(C(F)(F)F)cc(C(F)(F)F)c2)C(C)=O)c2cc(C(F)(F)F)ccc2N1C(=O)OC(C)C`
**Result** inactive

**Query** Input `Cc1cn([C@H]2C[C@H](N=[N+]=[N-])[C@@H](CO)O2)c(=O)[nH]c1=O`
**Result** inactive

**Query** Input `Oc1ccccc1`
**Result** inactive

**Query** Input `CC1(C)NC(=O)N(c2ccc([N+](=O)[O-])c(C(F)(F)F)c2)C1=O`
**Result** inactive

**Query** Input `CCN(Cc1cccc(S(=O)(=O)O)c1)c1ccc(C(=C2C=CC(=[N+](CC)Cc3cccc(S(=O)(=O)O)c3)C=C2)c2ccccc2S(=O)(=O)[O-])cc1`
**Result** inactive

Now for a further compound.
**Query** Please indicate how the test categorized `CC1=CC(=O)/C(=C(/C)O)C(=O)O1` .
**Result** inactive

FYI, the data here is from PubChem BioAssay (EPA / NIEHS).
